Molecular target: glucagon receptor (GCGR), primary cAMP assay (human, UniProt P47871 26-477)
Sequence (P47871 26-477): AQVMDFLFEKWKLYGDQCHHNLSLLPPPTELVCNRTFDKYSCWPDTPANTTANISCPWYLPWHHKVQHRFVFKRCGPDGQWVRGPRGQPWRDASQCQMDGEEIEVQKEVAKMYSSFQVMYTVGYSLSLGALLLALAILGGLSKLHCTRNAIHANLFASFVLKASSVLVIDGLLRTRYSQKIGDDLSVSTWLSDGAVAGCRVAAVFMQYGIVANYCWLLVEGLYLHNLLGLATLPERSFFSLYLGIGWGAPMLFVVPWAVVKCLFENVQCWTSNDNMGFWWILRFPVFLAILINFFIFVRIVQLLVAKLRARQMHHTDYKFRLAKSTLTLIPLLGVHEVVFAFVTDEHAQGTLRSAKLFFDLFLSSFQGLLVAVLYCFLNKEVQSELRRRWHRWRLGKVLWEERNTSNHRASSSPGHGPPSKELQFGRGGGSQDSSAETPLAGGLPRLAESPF
Experiment: cell-based or functional assay
Starred links: 1 amine or outer side, 2 acyl side, 3 side chain; linkers in the order of their positions; H or OH if unused. Non-standard residues stand in square brackets, D forms with d. Groups on a side chain read outwards from the residue. Primed or numbered codes have the meaning given here. No end group written: not given here. *: point of attachment. Tyr(OMe) = COc1ccc(C[C@H](N[*:1])C(=O)[*:2])cc1; γGlu = O=C(O)[C@H](CCC(=O)[*:2])N[*:1]; Palmitoyl = CCCCCCCCCCCCCCCC(=O)*; αMeF = C[C@](N)(Cc1ccccc1)C(=O)O; αMeK = C[C@](N)(CCCCN)C(=O)O; Lauroyl = CCCCCCCCCCCC(=O)*; αMeS = C[C@](N)(CO)C(=O)O; PEG2′ = not defined here; Aib = CC(C)(N)C(=O)O
measure name: Primary assay EC50 (cAMP), n1 (nM)
Write the value in nM as a bare number.

Worked examples follow.
binder	unit of measure	Primary assay EC50 (cAMP), n1
H[Aib]EGS[αMeF]TSDV[αMeS]SYK([PEG2′-PEG2′-γGlu-Lauroyl])EGEAA[αMeK]EFIAWK([PEG2′-PEG2′-γGlu-Lauroyl])VEGG-NH2 [SEQ ID NO: 270]	nM	22.3
H[Aib]EGS[αMeF]TSDV[αMeS]SYK([PEG2′-PEG2′-γGlu-Lauroyl])EGEAA[αMeK]EFIK([PEG2′-PEG2′-γGlu-Lauroyl])WVVEGG-NH2 [SEQ ID NO: 268]	nM	22.2
H[Aib]EGS[αMeF]TSDV[αMeS]SK([PEG2′-PEG2′-γGlu-Lauroyl])LEGEAA[αMeK]E[Tyr(OMe)]IAK([PEG2′-PEG2′-γGlu-Lauroyl])VVEGG-NH2 [SEQ ID NO: 406]	nM	21.5

Please turn your attention to the following entry.
If you can, please state the reported Primary assay EC50 (cAMP), n1 value of H[Aib]EGS[αMeF]TSDV[αMeS]SK([PEG2′-PEG2′-γGlu-Palmitoyl])LEGEAA[αMeK]EFIK([PEG2′-PEG2′-γGlu-Palmitoyl])WVVEGG-NH2 [SEQ ID NO: 265] . 21.6
